Entry source: patent US8324390B2

experimental_protocol: log P determination by HPLC (EEC Directive 79/831 Annex V.A8)
Type: physicochemical
condition_label: reversed-phase HPLC, Zorbax Eclipse C18 column, determined by HPLC according to EEC Directive 79/831 Annex V.A8; read-out: log P
Assignment: determine reported chromatographic logP for the given molecules.
Numbers only.

Before answering, review these 8 worked examples.
1. Cc1cc(Cl)cc(C(=O)NC(C)(C)C)c1NC(=O)c1cc(Cn2nnc(C(F)(F)F)n2)nn1-c1ccccc1 :: 4.14
2. Cc1cc(C#N)cc(C(=O)NC(C)(C)C)c1NC(=O)c1cc(Cn2nnnc2C(F)(F)F)nn1-c1ncccc1Br :: 3.07
3. Cc1cc(C#N)cc(C(=O)NC2CCCC2)c1NC(=O)c1cc(Cn2nnc(C(F)(F)F)n2)nn1-c1ccccc1Cl :: 3.84
4. Cc1cc(C#N)cc(C(=O)NCC(F)(F)F)c1NC(=O)c1cc(Cn2nnc(C(F)(F)F)n2)nn1-c1ccccc1Cl :: 3.48
5. Cc1cc(C#N)cc(C(=O)NC(C)(C)C)c1NC(=O)c1cc(Cn2nnnc2C(F)(F)F)nn1-c1ccccc1C(F)(F)F :: 3.58
6. Cc1cc(Br)cc(C(=O)NC(C)(C)C)c1NC(=O)c1cc(Cn2nnnc2C(F)(F)F)nn1-c1ncccc1Br :: 3.65
7. CNC(=O)c1cc(Cl)cc(C)c1NC(=O)c1cc(Cn2nnc(C(F)(F)C(F)(F)F)n2)nn1-c1ncccc1Br :: 3.36
8. Cc1cc(C#N)cc(C(=O)NC(C)C2CC2)c1NC(=O)c1cc(Cn2nnnc2C(F)(C(F)(F)F)C(F)(F)F)nn1-c1ncccc1Cl (centres unmarked) :: 3.8

Please supply chromatographic logP for each of the following items, keeping them in order.
1. Cc1cc(Cl)cc(C(=O)NC(C)(C)C)c1NC(=O)c1cc(Cn2nnc(C(F)(F)C(F)(F)F)n2)nn1-c1ccccc1Cl
2. CNC(=O)c1cc(C#N)cc(C)c1NC(=O)c1cc(Cn2nnc(C(F)(F)C(F)(F)F)n2)nn1-c1ncccc1Br
3. Cc1cc(C#N)cc(C(=O)NC(C)(C)C)c1NC(=O)c1cc(Cn2nnc(C(F)(F)F)n2)nn1-c1ncccc1F
4. Cc1cc(Cl)cc(C(=O)NC(C)C)c1NC(=O)c1cc(Cn2nnc(C(F)(F)C(F)(F)F)n2)nn1-c1ncccc1Br

Response given:
4.73
3.03
3.2
3.87

Please supply chromatographic logP for each of the following items, keeping them in order.
1. Cc1cc(C#N)cc(C(=O)NC2CC2)c1NC(=O)c1cc(Cn2nnnc2C(F)(F)F)nn1-c1ccccc1Cl
2. Cc1cc(C#N)cc(C(=O)NC(C)C)c1NC(=O)c1cc(Cn2nnnc2C(F)(C(F)(F)F)C(F)(F)F)nn1-c1ncccc1Cl

Response given:
[2.95, 3.5]

* * *

Assignment: determine reported chromatographic logP for the given compounds.
experimental_protocol: log P determination by HPLC (EEC Directive 79/831 Annex V.A8)
Assay type: physicochemical
condition_label: log P
Give bare numbers.

Before answering, review these 5 worked examples.
1. Cc1cc(Cl)cc(C(=O)NC(C)(C)C)c1NC(=O)c1cc(Cn2nnc(C(F)F)n2)nn1-c1ncccc1Cl [Example 258] :: 3.32
2. CSC[C@H](C)NC(=O)c1cc(I)cc(C)c1NC(=O)c1cc(Cn2nnc(C(F)F)n2)nn1-c1ncccc1Cl [Example 278] :: 3.41
3. Cc1cc(Cl)cc(C(N)=O)c1NC(=O)c1cc(Cn2nnc(C(F)(C(F)(F)F)C(F)(F)F)n2)nn1-c1ncccc1Cl [Example 360] :: 3.46
4. Cc1cc(C#N)cc(C(=O)NCCCCCCO)c1NC(=O)c1cc(Cn2nnc(C(F)(F)F)n2)nn1-c1ncccc1Cl [Example 94] :: 2.71
5. Cc1cc(Cl)cc(C(=O)NC(C)C)c1NC(=O)c1cc(Cn2nnc(C(F)(C(F)(F)F)C(F)(F)F)n2)nn1-c1ncccc1Cl [Example 363] :: 4.21

Please supply chromatographic logP for each of the following items, keeping them in order.
1. CNC(=O)c1cc(Cl)cc(C)c1NC(=O)c1cc(C(C)n2nnnc2C(F)(F)F)nn1-c1ncccc1Cl (stereo not shown) [Example 510]
2. CC(C)NC(=O)c1cc(Cl)cc(Cl)c1NC(=O)c1cc(Cn2nnnc2C(F)F)nn1-c1ncccc1Cl [Example 466]

Response given:
1. 2.86
2. 2.71
